Would you kindly list Kb for each of these compounds?
Target: LHRH (Rattus norvegicus, UniProt P30969)
Construct: endogenous in cells; host or cells: pituitary cells (own knowledge of the cited method)
Sequence (P30969 whole entry): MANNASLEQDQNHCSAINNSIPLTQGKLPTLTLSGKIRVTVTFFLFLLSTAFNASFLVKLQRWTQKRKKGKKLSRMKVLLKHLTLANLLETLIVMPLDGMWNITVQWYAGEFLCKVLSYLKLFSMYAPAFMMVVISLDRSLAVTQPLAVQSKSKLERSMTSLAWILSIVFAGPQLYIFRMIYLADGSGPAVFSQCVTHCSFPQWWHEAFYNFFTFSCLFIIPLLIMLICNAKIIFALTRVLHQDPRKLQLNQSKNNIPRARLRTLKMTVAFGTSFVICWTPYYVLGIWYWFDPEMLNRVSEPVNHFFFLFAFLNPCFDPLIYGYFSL
Assay: in vitro test for LHRH antagonist potency (pA2), shift of the leuprolide response curve
Type: cell-based
Conditions: negative logarithm of antagonist concentration required to shift the response curve produced by the agonist leuprolide to two-fold higher concentration
Where a SMILES comes first, the peptide text is derived from it. Bridges are numbered along the chain shown (N, C = ends). [ ]: non-standard residue; d: D form. The star is where a group is joined. Propanoyl(3-(4-Cl-Ph)) = O=C(CCc1ccc(Cl)cc1)*; Phenylacetyl(4-F) = O=C(Cc1ccc(F)cc1)*; Lys(iPr) = CC(C)NCCCC[C@H](N)C(=O)O; NMeY = CN[C@@H](Cc1ccc(O)cc1)C(=O)O; Nicotinoyl = O=C(c1cccnc1)*
# number only, unit nM dropped from output

Incoming: Quote Kb reported for CC(C)C[C@@H]1NC(=O)[C@@H](CCCCNC(=O)c2cccnc2)NC(=O)[C@H](Cc2ccc(O)cc2)N(C)C(=O)[C@H](CO)NC(=O)[C@H](NC(=O)Cc2ccc(F)cc2)CCCCNC(=O)CC[C@H](C(N)=O)NC(=O)[C@@H]2CCCN2C(=O)[C@H](CCCCNC(C)C)NC1=O [Example 10] ({Phenylacetyl(4-F)}-[dK]S[NMeY][dK](Nicotinoyl)L[Lys(iPr)]P[dE]-NH2; lactam 1-8) please.
Outgoing: 724

Incoming: Quote Kb reported for CC(C)C[C@@H]1NC(=O)[C@@H](CCCCNC(=O)c2cccnc2)NC(=O)[C@H](Cc2ccc(O)cc2)N(C)C(=O)[C@H](CO)NC(=O)[C@H](NC(=O)CCc2ccc(Cl)cc2)CCCCNC(=O)CC[C@H](C(N)=O)NC(=O)[C@@H]2CCCN2C(=O)[C@H](CCCCNC(C)C)NC1=O [Example 13] ({Propanoyl(3-(4-Cl-Ph))}-[dK]S[NMeY][dK](Nicotinoyl)L[Lys(iPr)]P[dE]-NH2; lactam 1-8) please.
Outgoing: 19.1
